Hey, just so you know, these numbers are from ChEMBL document CHEMBL1938302.

# target_system: Histamine H4 receptor (Homo sapiens)
# assay_protocol: Displacement of [3H]histamine from human recombinant histamine H4 receptor expressed in CHO cells coexpressing Ga15 by radioligand filtration binding assay
# Assay type: cell-based
pKi: −log10 of the molar value.
quantity_name: pKi

Answered examples (2):
CN1C[C@@H]2CN(C(=O)c3nc4ccc(F)c(F)c4[nH]3)C[C@@H]2C1 : 7.13
CN1C[C@@H]2CN(C(=O)c3nc4ccccc4[nH]3)C[C@@H]2C1 : 6.99

(A) CN1C[C@@H]2CN(C(=O)c3nc4cc(Cl)ccc4[nH]3)C[C@@H]2C1
(B) CN1C[C@@H]2CN(C(=N)c3nc4c(F)c(F)c(F)cc4[nH]3)C[C@@H]2C1
-- ask Record comparison, field pKi: mark the lower of A and B . Indicate your choice by writing its label.
-- reply A
(A: 6.89, B: 7.15)

====

# target_system: Histamine H4 receptor (Homo sapiens, UniProt Q9H3N8)
# assay_protocol: Antagonist activity at human histamine H4 receptor expressed in HEK293 cells assessed as rev inhibition of forskolin-stimulated cAMP accumulation by CRE-betalactamase reporter gene assay
# Assay type: functional, cell-based
quantity_name: Ki (nM)

(P) CN1C[C@@H]2CN(C(=N)c3nc4cc(Cl)ccc4[nH]3)C[C@@H]2C1
(Q) CN1C[C@@H]2CN(C(=N)c3nc4c(F)c(F)c(F)cc4[nH]3)C[C@@H]2C1
-- ask Which value of Ki is numerically greater: that of P or that of Q ? Indicate your choice by writing its label.
-- reply P

====

# target_system: Histamine H4 receptor (Homo sapiens)
# assay_protocol: Antagonist activity at human histamine H4 receptor expressed in HEK293 cells assessed as rev inhibition of forskolin-stimulated cAMP accumulation by CRE-betalactamase reporter gene assay
# Assay type: functional, cell-based
pKi: −log10 of the molar value.
quantity_name: pKi

CN1C[C@@H]2CN(C(=O)c3nc4cc(F)ccc4[nH]3)C[C@@H]2C1 : 6.84
CN1C[C@@H]2CN(C(=O)c3nc4ccc(F)c(F)c4[nH]3)C[C@@H]2C1 : 6.87
